- subject.of.test: rat CB-1 receptor (Rattus norvegicus, UniProt P20272)
- Construct: The tissue obtained from the brain of SD rats was homogenized; from tissue; host or cells: SD rat brain (membrane pellet of homogenate)
- Sequence (P20272 whole entry): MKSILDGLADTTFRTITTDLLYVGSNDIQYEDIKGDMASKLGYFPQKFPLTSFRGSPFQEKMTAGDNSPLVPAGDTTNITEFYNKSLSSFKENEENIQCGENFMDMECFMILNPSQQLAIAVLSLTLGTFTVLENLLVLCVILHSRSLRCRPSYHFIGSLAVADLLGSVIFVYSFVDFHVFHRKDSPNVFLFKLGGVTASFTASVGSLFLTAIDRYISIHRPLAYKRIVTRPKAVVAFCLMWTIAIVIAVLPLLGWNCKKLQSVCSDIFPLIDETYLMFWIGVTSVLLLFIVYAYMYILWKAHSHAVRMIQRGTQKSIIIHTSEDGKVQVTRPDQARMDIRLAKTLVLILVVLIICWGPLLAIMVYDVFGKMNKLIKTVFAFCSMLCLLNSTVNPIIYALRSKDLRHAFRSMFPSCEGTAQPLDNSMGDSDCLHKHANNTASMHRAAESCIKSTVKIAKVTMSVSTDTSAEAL
- protocol.description: rat CB-1 receptor binding protocol with [3H]CP-55940 on SD rat brain tissue
- condition.description: [3H]CP-55940 displacement, SD rat brain homogenate, 30° C., 60 min; read-out: IC50 (binding affinity for CB1 receptor)
reported.metric: IC50 (nM)

Consider the reported IC50 for these compounds:
>  <compound>
Cc1c(C(=O)NC(=O)OCC(C)(C)C)nn(-c2ccc(Cl)cc2Cl)c1-c1ccc(Cl)cc1 [Example 26]

>  <IC50 [nM]>
363

$$$$
>  <compound>
Cc1c(C(=O)NC(=O)C2CCCCC2)nc(-c2ccc(Cl)cc2Cl)n1-c1ccc(Cl)cc1 [Example 28]

>  <IC50 [nM]>
88

$$$$

a = CCCCC(CC)C(=O)NC(=O)c1nn(-c2ccc(Cl)cc2Cl)c(-c2ccc(Cl)cc2)c1C (stereo not shown) [Example 14]
b = Cc1c(C(=O)NC(=O)C2CCC2)nn(-c2ccc(Cl)cc2Cl)c1-c1ccc(Cl)cc1 [Example 3]
Query: Hey, which is lower on measured IC50, a or b ? Let me know the label of the one you choose.
Response: a

Entry source: patent US20080262066A1
